Measured pIC50, listed per entry.
experiment: Displacement of [3H]-PN200-110 from L-type calcium channel in Hartley guinea pig atrial membrane after 90 mins; format: cell membranes, Cavia porcellus, Cardiac atrium
Kindly note that pIC50 refers to -log10 of the concentration in mol/L and answer with the value alone.

Example compounds with recorded pIC50:
What does the data say about its pIC50? Entry: COC(=O)C1=C(C)NC(C)=C(C(=O)OC)C1c1c(-c2cccc(OC)c2)nc2sccn12 6.54

What does the data say about its pIC50? Entry: COC(=O)C1=C(C)NC(C)=C(C(=O)OC)C1c1ccccc1[N+](=O)[O-] [NIFEDIPINE] 8.29

New cases:
What does the data say about its pIC50? Entry: CCOC(=O)C1=C(C)NC(C)=C(C(=O)OCC)C1c1c(-c2cc(OC)ccc2OC)nc2sccn12 7.11

What does the data say about its pIC50? Entry: COC(=O)C1=C(C)NC(C)=C(C(=O)OC)C1c1c(-c2ccccc2C(F)(F)F)nc2sccn12 6.85

What does the data say about its pIC50? Entry: COC(=O)C1=C(C)NC(C)=C(C(=O)OC)C1c1c(-c2cccnc2)nc2sc(C)cn12 7.66

What does the data say about its pIC50? Entry: CCCc1cn2c(C3C(C(=O)OC)=C(C)NC(C)=C3C(=O)OC)c(-c3c(OC)ccc(OC)c3[N+](=O)[O-])nc2s1 7.19

What does the data say about its pIC50? Entry: COC(=O)C1=C(C)NC(C)=C(C(=O)OC)C1c1c(Cl)nc2sc(C)cn12 6.92

What does the data say about its pIC50? Entry: COC(=O)C1=C(C)NC(C)=C(C(=O)OC)C1c1c(-c2cc(OC)ccc2OC)nc2sccn12 6.92

What does the data say about its pIC50? Entry: COC(=O)C1=C(C)NC(C)=C(C(=O)OC)C1c1c(-c2cc(OC)cc(OC)c2)nc2sccn12 6.60

What does the data say about its pIC50? Entry: COC(=O)C1=C(C)NC(C)=C(C(=O)OC)C1c1c(-c2ccsc2)nc2sccn12 6.62

What does the data say about its pIC50? Entry: COC(=O)C1=C(C)NC(C)=C(C(=O)OC)C1c1c(-c2ccc(OC)c(OC)c2)nc2sccn12 6.41

###

Measured %max, listed per entry.
organism: Rattus norvegicus; assay: Displacement of [3H]-PN200-110 from L-type calcium channel dihydropyridine binding site in Wistar rat cortex homogenate at 100 uM after 60 mins by liquid scintillation spectometric analysis relative to control; type: tissue-based

What does the data say about its %max? Entry: COC(=O)C1=C(C)NC(C)=C(C(=O)OC)C1c1c(-c2ccsc2)nc2sccn12 53%

What does the data say about its %max? Entry: COC(=O)C1=C(C)NC(C)=C(C(=O)OC)C1c1c(-c2ccccc2C(F)(F)F)nc2sccn12 52%

Turning now to a further record.
What does the data say about its %max? Entry: CCOC(=O)C1=C(C)NC(C)=C(C(=O)OCC)C1c1c(-c2cc(OC)ccc2OC)nc2sccn12 98%

###

test: Displacement of [3H]-PN200-110 from L-type calcium channel dihydropyridine binding site in Wistar rat cortex homogenate after 60 mins by liquid scintillation spectometric analysis; type: tissue-based
just bin them by IC50: lo = under 200 nM, med = from 200 nM up to 1000 nM, hi = 1000 nM and over

Please review the entries below; each comes with its answer.
Category of COC(=O)C1=C(C)NC(C)=C(C(=O)OC)C1c1c(-c2ccccc2C(F)(F)F)nc2sccn12 , please. hi

Category of CCOC(=O)C1=C(C)NC(C)=C(C(=O)OCC)C1c1c(-c2cc(OC)ccc2OC)nc2sccn12 , please. med

Category of COC(=O)C1=C(C)NC(C)=C(C(=O)OC)C1c1c(-c2cc(OC)cc(OC)c2)nc2sccn12 , please. hi

New cases:
Category of COC(=O)C1=C(C)NC(C)=C(C(=O)OC)C1c1c(-c2cc(OC)ccc2OC)nc2sccn12 , please. med

Category of COC(=O)C1=C(C)NC(C)=C(C(=O)OC)C1c1c(-c2cccnc2)nc2sc(C)cn12 , please. lo

Category of COC(=O)C1=C(C)NC(C)=C(C(=O)OC)C1c1ccccc1[N+](=O)[O-] , please. lo

Category of COC(=O)C1=C(C)NC(C)=C(C(=O)OC)C1c1c(-c2ccc(OC)c(OC)c2)nc2sccn12 , please. med

Category of COC(=O)C1=C(C)NC(C)=C(C(=O)OC)C1c1c(C(F)(F)F)nc2sccn12 , please. hi

###

experiment: Displacement of [3H]-PN200-110 from L-type calcium channel in Hartley guinea pig ventricular membrane […] after 90 mins; design: species or system Cavia porcellus
Measured pIC50, listed per entry.
Kindly note that pIC50 refers to -log10 of the concentration in mol/L and answer with the value alone.

Example molecules with recorded pIC50:
What does the data say about its pIC50? Entry: COC(=O)C1=C(C)NC(C)=C(C(=O)OC)C1c1c(-c2cc(OC)cc(OC)c2)nc2sccn12 6.08

What does the data say about its pIC50? Entry: COC(=O)C1=C(C)NC(C)=C(C(=O)OC)C1c1ccccc1[N+](=O)[O-] 8.24

What does the data say about its pIC50? Entry: CCOC(=O)C1=C(C)NC(C)=C(C(=O)OCC)C1c1c(-c2cc(OC)ccc2OC)nc2sccn12 5.84

What does the data say about its pIC50? Entry: COC(=O)C1=C(C)NC(C)=C(C(=O)OC)C1c1c(-c2ccc(OC)c(OC)c2)nc2sccn12 7.34

New cases:
What does the data say about its pIC50? Entry: CCCc1cn2c(C3C(C(=O)OC)=C(C)NC(C)=C3C(=O)OC)c(-c3c(OC)ccc(OC)c3[N+](=O)[O-])nc2s1 5.48

What does the data say about its pIC50? Entry: COC(=O)C1=C(C)NC(C)=C(C(=O)OC)C1c1c(-c2cccc(OC)c2)nc2sccn12 6.35

What does the data say about its pIC50? Entry: COC(=O)C1=C(C)NC(C)=C(C(=O)OC)C1c1c(-c2ccsc2)nc2sccn12 5.69

###

species on record: Cavia porcellus; test: Displacement of [3H]-PN200-110 from L-type calcium channel in Hartley guinea pig ventricular membrane […] after 90 mins relative to control
Measured %max, listed per entry.
Supply the numeric figure in %, leaving out any unit text.

Example compounds with recorded %max:
What does the data say about its %max? Entry: COC(=O)C1=C(C)NC(C)=C(C(=O)OC)C1c1c(-c2ccc(OC)c(OC)c2)nc2sccn12 93

What does the data say about its %max? Entry: COC(=O)C1=C(C)NC(C)=C(C(=O)OC)C1c1c(-c2cc(OC)cc(OC)c2)nc2sccn12 60

What does the data say about its %max? Entry: CCOC(=O)C1=C(C)NC(C)=C(C(=O)OCC)C1c1c(-c2cc(OC)ccc2OC)nc2sccn12 91

What does the data say about its %max? Entry: COC(=O)C1=C(C)NC(C)=C(C(=O)OC)C1c1c(-c2ccsc2)nc2sccn12 70

Turning now to a further record.
What does the data say about its %max? Entry: COC(=O)C1=C(C)NC(C)=C(C(=O)OC)C1c1c(-c2cccc(OC)c2)nc2sccn12 96

###

system: Ileum; experiment: Relaxant activity in potassium depolarized guinea pig ileum longitudinal smooth muscle assessed as inhibition of calcium-induced contraction; type: functional, tissue-based; conditions: Cavia porcellus
measured_quantity: IC50

Recorded IC50 for COC(=O)C1=C(C)NC(C)=C(C(=O)OC)C1c1c(-c2c(Cl)csc2Cl)nc2sc(C)cn12 with Ileum, please? 3230 nM

Recorded IC50 for COC(=O)C1=C(C)NC(C)=C(C(=O)OC)C1c1c(-c2cccs2)nc2sc(C)cn12 with Ileum, please? 1370 nM

Recorded IC50 for COC(=O)C1=C(C)NC(C)=C(C(=O)OC)C1c1c(-c2ccncc2)nc2sccn12 with Ileum, please? 960 nM

Recorded IC50 for CCOC(=O)C1=C(C)NC(C)=C(C(=O)OCC)C1c1c(-c2cc(OC)ccc2OC)nc2sccn12 with Ileum, please? 46 nM

Recorded IC50 for COC(=O)C1=C(C)NC(C)=C(C(=O)OC)C1c1c(-c2ccncc2)nc2sc(C)cn12 with Ileum, please? 9690 nM

###

system: Ileum; experiment: Relaxant activity in potassium depolarized guinea pig ileum longitudinal smooth muscle assessed as inhibition of calcium-induced contraction; format: functional, tissue-based; details: Cavia porcellus
measured_quantity: pIC50
Kindly note that pIC50 refers to -log10 of the concentration in mol/L and answer with the value alone.

Example compounds with recorded pIC50:
What does the data say about its pIC50? Entry: COC(=O)C1=C(C)NC(C)=C(C(=O)OC)C1c1c(-c2ccsc2)nc2sc(C)cn12 5.45

What does the data say about its pIC50? Entry: COC(=O)C1=C(C)NC(C)=C(C(=O)OC)C1c1c(-c2cccnc2)nc2sc(C)cn12 4.80

What does the data say about its pIC50? Entry: COC(=O)C1=C(C)NC(C)=C(C(=O)OC)C1c1c(-c2cccnc2)nc2sccn12 5.45

Turning now to a further record.
What does the data say about its pIC50? Entry: COC(=O)C1=C(C)NC(C)=C(C(=O)OC)C1c1c(-c2ccccn2)nc2sccn12 5.59
